// provenance: patent US8592422B2

# target_or_system: human mGluR5a receptor (Homo sapiens)
# Construct: cDNA subcloned into pcDNA3.1(-)
# method_description: Cell-based functional Ca2+ mobilization assay (FDSS), potentiation of glutamate EC20 response
# reported_conditions: maximum % effect in concentration-response curve, as percent of response to maximally effective glutamate
# Method: Human embryonic kidney (HEK) cells transfected with rat mGluR5 were plated in clear bottom assay plates for assay in a Functional Drug Screening System (FDSS). […] After establishment of a fluorescence baseline for twelve seconds, the compounds of the present invention were added to the cells, and the response in cells was measured. […] Five minutes later, an mGluR5 agonist (e.g., glutamate, 3,5-dihydroxyphenylglycine, or quisqualate) was added to the cells, and the response of the cells was measured. […]
assay_readout: Emax (%)

Cc1cccc(OCc2cc3n(n2)CCN(c2ccc(F)cn2)C3=O)c1: 61
O=C1c2cc(COc3ccccc3)nn2CCN1c1ccc2scnc2c1: 66
COc1nc(N2CCn3nc(COc4ccc(F)cc4)cc3C2=O)ncc1C: 72

====

assay_readout: melting point (°C)

Example entries and their recorded answers appear below.
O=C1c2cc(COc3ccccc3)nn2CCN1c1ccncc1 [Example 14]: 271.3
COc1ccccc1N1CCn2nc(COc3ccc(F)cc3)cc2C1=O [Example 221]: 117.3

P: COc1cc(F)cc(N2CCn3nc(COc4ccccc4)cc3C2=O)c1 [Example 299]
Q: Cc1cccnc1OCc1cc2n(n1)CCN(c1ccc(F)cc1)C2=O [Example 185]
Between the entries labelled P and Q , which has a larger melting point value on record? Respond with the label that goes with your answer.
Q
(Q: 270.1 °C, P: 127.8 °C)

====

# target_or_system: human mGluR5a receptor (Homo sapiens, UniProt P41594)
# Construct: cDNA subcloned into pcDNA3.1(-)
# Sequence (P41594 21-1180 isoform P41594-2 limits assumed): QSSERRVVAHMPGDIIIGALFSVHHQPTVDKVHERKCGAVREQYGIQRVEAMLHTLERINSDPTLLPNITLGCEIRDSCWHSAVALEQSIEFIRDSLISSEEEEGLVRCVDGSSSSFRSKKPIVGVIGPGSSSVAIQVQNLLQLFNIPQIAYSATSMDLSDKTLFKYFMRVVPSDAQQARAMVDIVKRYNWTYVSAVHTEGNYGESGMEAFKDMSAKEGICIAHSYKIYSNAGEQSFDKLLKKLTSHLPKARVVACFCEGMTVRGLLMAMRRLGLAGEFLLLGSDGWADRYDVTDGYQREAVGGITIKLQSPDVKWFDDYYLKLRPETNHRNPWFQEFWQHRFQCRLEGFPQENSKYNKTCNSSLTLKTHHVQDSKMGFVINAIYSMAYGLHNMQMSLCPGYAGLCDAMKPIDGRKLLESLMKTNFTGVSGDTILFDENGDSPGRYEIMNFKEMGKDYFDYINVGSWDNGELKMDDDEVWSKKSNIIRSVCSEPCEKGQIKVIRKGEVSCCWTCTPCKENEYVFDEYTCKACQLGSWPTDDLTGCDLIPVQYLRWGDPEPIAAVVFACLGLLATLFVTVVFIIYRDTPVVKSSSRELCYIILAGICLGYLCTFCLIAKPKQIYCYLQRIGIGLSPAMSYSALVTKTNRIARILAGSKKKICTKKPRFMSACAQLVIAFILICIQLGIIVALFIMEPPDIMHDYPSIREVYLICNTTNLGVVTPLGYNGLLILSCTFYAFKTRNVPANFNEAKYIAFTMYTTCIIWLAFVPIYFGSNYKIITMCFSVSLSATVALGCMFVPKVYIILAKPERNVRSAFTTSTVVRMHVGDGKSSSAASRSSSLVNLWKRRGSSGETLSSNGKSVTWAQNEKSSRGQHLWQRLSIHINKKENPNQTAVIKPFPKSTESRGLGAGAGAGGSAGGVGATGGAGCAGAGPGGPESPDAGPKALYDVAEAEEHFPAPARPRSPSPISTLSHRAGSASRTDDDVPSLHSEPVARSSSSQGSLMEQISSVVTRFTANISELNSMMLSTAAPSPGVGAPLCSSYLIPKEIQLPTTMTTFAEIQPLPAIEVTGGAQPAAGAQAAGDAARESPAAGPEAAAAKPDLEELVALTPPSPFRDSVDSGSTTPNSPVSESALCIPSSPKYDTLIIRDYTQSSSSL
# method_description: Cell-based functional Ca2+ mobilization assay (FDSS), potentiation of glutamate EC20 response
# reported_conditions: HEK cells transfected with human mGluR5 (H10H or H12H); in presence of EC20 glutamate; read-out: EC50
pEC50: −log10 of the molar value.
assay_readout: pEC50

Answered cases to consult:
CN(C)c1ccc(F)c(N2CCn3nc(COc4ccccc4)cc3C2=O)n1 [Example 283]: 7.39
O=C1c2cc(COc3ccccc3)nn2CCN1c1nccc(N2CCCC2)n1 [Example 309]: 5.45
Cc1nc(N2CC(C)n3nc(COc4ccc(F)cc4)cc3C2=O)ccc1F (racemic) [Example 236]: 6.82
Cc1ccncc1N1CCn2nc(COc3ccccc3)cc2C1=O [Example 32]: 6.13
O=C1c2cc(COc3ccccc3)nn2CC(CO)N1c1ccc(F)cc1 (stereo not shown) [Example 265]: 5.65
O=C1c2cc(COc3ccccc3)nn2CCN1c1ccncc1 [Example 14]: 5.83
CC1Cn2nc(COc3ccccn3)cc2C(=O)N1c1ccc(F)cc1 (stereo not shown) [Example 247]: 6.23
Cc1cncc(N2CCn3nc(COc4ccccc4)cc3C2=O)c1 [Example 22]: 5.92

P: CNc1ccnc(N2CCn3nc(COc4ccccc4)cc3C2=O)n1 [Example 277]
Q: Cc1cccc(OCc2cc3n(n2)CCN(CC2CC2)C3=O)c1 [Example 168]
Of P and Q , which one carries the higher reported pEC50? Write down the label of the entry you select.
P
(P: 6.03, Q: 5.18)

====

assay_readout: melting point (°C)

O=C1c2cc(COc3cnccn3)nn2CCN1c1ccc(F)cc1: 144.8
O=C1c2cc(COc3cncc(F)c3)nn2CCN1CC1CC1: 110.7

A: O=C1c2cc(COc3ccncc3)nn2CCN1c1ccc(F)cc1
B: COc1ncccc1N1CCn2nc(COc3ccc(F)cc3)cc2C1=O
Hey, which is lower on measured melting point, A or B ? Please identify the chosen entry by its label.
A

====

# target_or_system: human mGluR5a receptor (Homo sapiens, UniProt P41594)
# Construct: cDNA subcloned into pcDNA3.1(-)
# method_description: Cell-based functional Ca2+ mobilization assay (FDSS), potentiation of glutamate EC20 response
# reported_conditions: HEK cells transfected with human mGluR5 (H10H or H12H); in presence of EC20 glutamate; read-out: EC50
assay_readout: EC50 (nM)

P: Cc1nc(N2C(=O)c3cc(COc4ccccc4)nn3C[C@@H]2C)ccc1F [Example 138]
Q: COCc1cc(F)ccc1N1CCn2nc(COc3ccccc3)cc2C1=O [Example 304]
R: Cc1cc(N2C(=O)c3cc(COc4ccccc4)nn3C[C@H]2C)ncc1F [Example 155]
S: CC1Cn2nc(COc3ccccc3)cc2C(=O)N1c1ccc(F)cc1 (stereo not drawn) [Example 157]
T: CN(C)c1ccnc(N2CCn3nc(COc4ccccc4)cc3C2=O)n1 [Example 276]
Which order do these items take when sorted by rising EC50? List them. Give your ranking as a list of the labels in the requested order.
R, Q, P, S, T
(R: 130 nM, Q: 190 nM, P: 316 nM, S: 575 nM, T: 1260 nM)

====

# target_or_system: human mGluR5a receptor (Homo sapiens)
# Construct: cDNA subcloned into pcDNA3.1(-)
# method_description: Cell-based functional Ca2+ mobilization assay (FDSS), potentiation of glutamate EC20 response
# reported_conditions: HEK cells transfected with human mGluR5 (H10H or H12H); in presence of EC20 glutamate
assay_readout: pEC50

CC1CN(c2ccc(F)cc2)C(=O)c2cc(COc3cccc(F)c3)nn21 (single isomer, unassigned) [Example 239]: 7.21
COc1cc(N2CCn3nc(COc4ccccc4)cc3C2=O)ccc1F [Example 51]: 7.26
Cc1cc(N(C)C)nc(N2CCn3nc(COc4ccccc4)cc3C2=O)c1 [Example 290]: 7.33
COc1nccc(N2C(=O)c3cc(COc4ccccc4)nn3CC2C)n1 (centres unmarked) [Example 145]: 5.85
CC1CN(CC2CC2)C(=O)c2cc(COc3ccccc3)nn21 (single isomer, unassigned) [Example 128]: 6.85
Cc1cccc(N2CCn3nc(COc4ccc(F)cc4)cc3C2=O)c1 [Example 224]: 7.02
CN(C)c1ccc(F)c(N2CCn3nc(COc4ccccn4)cc3C2=O)n1 [Example 314]: 6.69
COCC1Cn2nc(COc3ccccc3)cc2C(=O)N1c1ccc(F)cc1 (centres unmarked) [Example 267]: 6.03
CN1CCn2nc(COc3ccccc3)cc2C1=O [Example 2]: 5.87
Cc1nc(N2CCn3nc(COc4ccccn4)cc3C2=O)ccc1F [Example 205]: 6.41
Cc1ccncc1N1CCn2nc(COc3ccccc3)cc2C1=O [Example 32]: 6.13
COCc1cc(F)ccc1N1CCn2nc(COc3ccccc3)cc2C1=O [Example 304]: 6.72
CC1Cn2nc(COc3ccc(F)cc3)cc2C(=O)N1c1ccc(F)cc1 (centres unmarked) [Example 245]: 6.86
COc1nc(N2CCn3nc(COc4ccccc4)cc3C2=O)ncc1C [Example 97]: 7.01
COc1ccc(N2CCn3nc(COc4ccccc4)cc3C2=O)cc1 [Example 50]: 6.92
Cc1nccc(OCc2cc3n(n2)CCN(c2ccc(F)cc2)C3=O)n1 [Example 182]: 5.49
CC1Cn2nc(COc3ccccc3)cc2C(=O)N1CC1CC1 (centres unmarked) [Example 136]: 6.13
CN(C)c1cccc(N2CCn3nc(COc4ccc(F)cc4)cc3C2=O)n1 [Example 317]: 7.38
O=C1c2cc(COc3ccccc3)nn2CCN1c1nc2ccccc2o1 [Example 324]: 7.24
O=C1c2cc(COc3ccccc3)nn2C(F)CN1c1ccc(F)cc1 (racemic) [Example 271]: 7.05
Cc1ccc(F)cc1N1CCn2nc(COc3ccccc3)cc2C1=O [Example 61]: 7.19
Cc1ccc(F)c(N2CCn3nc(COc4ccccc4)cc3C2=O)n1 [Example 88]: 6.75
O=C1c2cc(COc3ccccc3)nn2CC(CO)N1c1ccc(F)cc1 (centres unmarked) [Example 265]: 5.65
N#Cc1cccc(N2CCn3nc(COc4ccccc4)cc3C2=O)n1 [Example 95]: 6.82
O=C1c2cc(COc3ccccc3)nn2CC(CF)N1c1ccc(F)cc1 (centres unmarked) [Example 269]: 6.16
O=C1c2cc(COc3ccccc3)nn2CCN1c1cccc(CCF)n1 [Example 75]: 6.69

====

# target_or_system: human mGluR5a receptor (Homo sapiens, UniProt P41594)
# Construct: cDNA subcloned into pcDNA3.1(-)
# method_description: Cell-based functional Ca2+ mobilization assay (FDSS), potentiation of glutamate EC20 response
# reported_conditions: maximum % effect in concentration-response curve, as percent of response to maximally effective glutamate
assay_readout: Emax (%)

CN(C)c1cccnc1N1CCn2nc(COc3ccccc3)cc2C1=O: 65
COc1cncc(N2CCn3nc(COc4ccccn4)cc3C2=O)n1: 56
O=C1c2cc(COc3ncccn3)nn2CCN1c1ccc(F)cc1: 50
O=C1c2cc(COc3cnccn3)nn2CCN1c1ccc(F)cc1: 58
COc1ccccc1N1CCn2nc(COc3ccc(F)cc3)cc2C1=O: 66
O=C1c2cc(COc3ccccc3)nn2CCN1c1cccc(F)c1: 81
O=C1c2cc(COc3ccccc3)nn2CCN1c1cnccn1: 56
Cc1ccc(N2CCn3nc(COc4ccccn4)cc3C2=O)cc1: 69
CC(C)N1CCn2nc(COc3ccccc3)cc2C1=O: 53
CC1CN(c2cccc(F)c2)C(=O)c2cc(COc3ccc(F)cc3)nn21 (racemic): 64
Cc1cc(N2CCn3nc(COc4ccccc4)cc3C2=O)ncn1: 65
Cc1cncc(N2CCn3nc(COc4ccccc4)cc3C2=O)c1: 74
O=C1c2cc(COc3cccnc3)nn2CCN1c1ccc(F)cc1: 69
C[C@@H]1Cn2nc(COc3cccc(C#N)c3)cc2C(=O)N1c1ccc(F)cc1: 69
O=C1c2cc(COc3ccc(F)cc3)nn2CCN1c1ccc(F)cn1: 60
O=C1c2cc(COc3cncc(F)c3)nn2CCN1CC1CC1: 51
Cc1ccc(N2CCn3nc(COc4ccccc4)cc3C2=O)c(C)n1: 62
Cn1ccn2nc(COc3ccccc3)cc2c1=O: 74
N#Cc1cccc(OCc2cc3n(n2)CCN(c2ccc(F)cn2)C3=O)c1: 54
COc1ncncc1N1CCn2nc(COc3ccccc3)cc2C1=O: 57
Cc1ccc(N2CCn3nc(COc4ccccc4)cc3C2=O)nn1: 53
Cc1ccc(N(C)C)nc1N1CCn2nc(COc3ccccc3)cc2C1=O: 63
Cc1cccnc1OCc1cc2n(n1)CCN(c1ccc(F)cc1)C2=O: 51
O=C1c2cc(COc3ccccc3)nn2CCN1c1cncnc1: 58
O=C1c2cc(COc3cccc(F)c3)nn2CCN1c1ccc(F)cn1: 61
O=C1c2cc(COc3ccncc3)nn2CCN1CC1CC1: 63
CN(C)c1cccc(N2CCn3nc(COc4cccc(F)c4)cc3C2=O)n1: 74
COc1ncc(C)c(N2CCn3nc(COc4ccccc4)cc3C2=O)n1: 53
